Molecular target: PRKCE (human)
Test: KINOMEscan competition binding
Details: compound 10.0 µM
# reported kinase still bound, per cent of control; entries follow
Metric: kinase still bound, per cent of control (%)

* C=CC(=O)Nc1cc(-n2c(=O)ccc3cnc4ccc(-c5cn[nH]c5)cc4c32)ccc1C | 100
* COc1ccc(N(C(=O)Oc2c(C)cccc2C)c2ccnc(Nc3ccc(N4CCN(C)CC4)cc3)n2)c(OC)c1 | 27
* COc1cc(C(=O)N2CCC(N3CCN(C)CC3)CC2)ccc1Nc1ncc2c(n1)N(C)c1ccccc1C(=O)N2C | 100
* C[C@@H](Oc1cc(-c2cnn(C3CCNCC3)c2)cnc1N)c1c(Cl)ccc(F)c1Cl | 100

###

Molecular target: NEK6 (human) (UniProt Q9HC98)
Sequence (Q9HC98 whole entry, looked up): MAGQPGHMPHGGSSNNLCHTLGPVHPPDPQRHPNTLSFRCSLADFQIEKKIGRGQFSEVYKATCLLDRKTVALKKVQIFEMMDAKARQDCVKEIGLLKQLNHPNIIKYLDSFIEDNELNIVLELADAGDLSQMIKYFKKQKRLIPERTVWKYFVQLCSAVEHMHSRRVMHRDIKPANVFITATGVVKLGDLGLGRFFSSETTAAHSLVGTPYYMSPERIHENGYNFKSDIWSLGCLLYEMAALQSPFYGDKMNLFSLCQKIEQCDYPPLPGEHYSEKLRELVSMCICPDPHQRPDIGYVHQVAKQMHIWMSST
Test: KINOMEscan competition binding
Conditions: compound 10.0 µM
# reported kinase still bound, per cent of control; entries follow
Metric: kinase still bound, per cent of control

- NC(=O)Nc1cc(-c2cccc(F)c2)sc1C(=O)N[C@@H]1CCCNC1: 89%
- CCN1CCN(C(=O)Cc2ccc(Nc3ncc(F)c(Nc4ccc(C(=O)Nc5ccccc5Cl)cc4)n3)cc2)CC1: 8.4%
- O=C(Nc1cccc(Nc2ncc(Br)c(NCCc3cnc[nH]3)n2)c1)N1CCCC1: 0.5%
- COc1cc(N2CCN(C)CC2)ccc1Nc1ncc2c(n1)N(C)c1ccccc1C(=O)N2C: 100%
- Cc1n[nH]c2ccc(-c3cncc(OC[C@@H](N)Cc4c[nH]c5ccccc45)c3)cc12: 100%
- COc1cc(C(=O)N2CCC(N3CCN(C)CC3)CC2)ccc1Nc1ncc2c(n1)N(C)c1ccccc1C(=O)N2C: 76%
- COc1cc2ncn(-c3cc(OCc4ccccc4C(F)(F)F)c(C(N)=O)s3)c2cc1OC: 87%
- CCN(CC)CCCCNc1ncc2c(n1)N(C)C(=O)N(c1c(Cl)c(OC)cc(OC)c1Cl)C2: 100%
- O=C1NC(=O)/C(=C/c2ccc3nccc(-c4ccncc4)c3c2)S1: 81%
- N#CCNC(=O)c1ccc(-c2ccnc(Nc3ccc(N4CCOCC4)cc3)n2)cc1: 6.2%
- CS(=O)(=O)N1CCN(Cc2cc3nc(-c4cccc5[nH]ncc45)nc(N4CCOCC4)c3s2)CC1: 100%
- C=CC(=O)Nc1ccc(CN(C(=O)Nc2c(Cl)c(OC)cc(OC)c2Cl)c2cc(Nc3ccc(N4CCN(C)CC4)cc3)ncn2)cc1: 100%
- CCN(CC)CCCCNc1ncc2cc(-c3cc(OC)cc(OC)c3)c(NC(=O)NC(C)(C)C)nc2n1: 100%
- C[C@@H](Oc1cc(-c2cnn(C3CCNCC3)c2)cnc1N)c1c(Cl)ccc(F)c1Cl: 27%
- C=CC(=O)Nc1cc(-n2c(=O)ccc3cnc4ccc(-c5cn[nH]c5)cc4c32)ccc1C: 92%
- CN(C)C/C=C/C(=O)Nc1ccc(C(=O)Nc2cccc(Nc3nccc(-c4cccnc4)n3)c2)cc1: 2.8%
- COc1cc2ncnc(-n3nc(-c4ccccn4)nc3N)c2cc1OC: 0.15%
- COc1ccc(N(C(=O)Oc2c(C)cccc2C)c2ccnc(Nc3ccc(N4CCN(C)CC4)cc3)n2)c(OC)c1: 96%
- O=c1cc(N2CCOCC2)oc2c(-c3cccc4c3sc3ccccc34)cccc12: 100%
- CNC(=O)c1cc(Oc2ccc(NC(=O)Nc3ccc(Cl)c(C(F)(F)F)c3)cc2)ccn1: 100%
- CNC(=O)c1ccc(Nc2cc(Nc3ccccc3S(=O)(=O)C(C)C)c3cc[nH]c3n2)nc1: 100%
- COCC(=O)NC/C=C/c1ccc2ncnc(Nc3ccc(Oc4ccc(C)nc4)c(C)c3)c2c1: 100%

###

Target: MAP3K6 (human)
Experiment: KINOMEscan competition binding
Conditions: compound 10.0 µM
# reported kinase still bound, per cent of control; entries follow
Metric: kinase still bound, per cent of control (%)

• C=CC(=O)Nc1cc(-n2c(=O)ccc3cnc4ccc(-c5cn[nH]c5)cc4c32)ccc1C = 75
• NC(=O)Nc1cc(-c2cccc(F)c2)sc1C(=O)N[C@@H]1CCCNC1 = 25
• C[C@@H](Oc1cc(-c2cnn(C3CCNCC3)c2)cnc1N)c1c(Cl)ccc(F)c1Cl = 87
• N#CCNC(=O)c1ccc(-c2ccnc(Nc3ccc(N4CCOCC4)cc3)n2)cc1 = 100
• CS(=O)(=O)N1CCN(Cc2cc3nc(-c4cccc5[nH]ncc45)nc(N4CCOCC4)c3s2)CC1 = 100
• CN(C)C/C=C/C(=O)Nc1ccc(C(=O)Nc2cccc(Nc3nccc(-c4cccnc4)n3)c2)cc1 = 86
• COCC(=O)NC/C=C/c1ccc2ncnc(Nc3ccc(Oc4ccc(C)nc4)c(C)c3)c2c1 = 100
• COc1cc(N2CCN(C)CC2)ccc1Nc1ncc2c(n1)N(C)c1ccccc1C(=O)N2C = 100
• O=c1cc(N2CCOCC2)oc2c(-c3cccc4c3sc3ccccc34)cccc12 = 100

###

# reported kinase still bound, per cent of control; entries follow
Molecular target: MAPKAPK5 (human) (UniProt Q8IW41)
Sequence (Q8IW41 whole entry, looked up): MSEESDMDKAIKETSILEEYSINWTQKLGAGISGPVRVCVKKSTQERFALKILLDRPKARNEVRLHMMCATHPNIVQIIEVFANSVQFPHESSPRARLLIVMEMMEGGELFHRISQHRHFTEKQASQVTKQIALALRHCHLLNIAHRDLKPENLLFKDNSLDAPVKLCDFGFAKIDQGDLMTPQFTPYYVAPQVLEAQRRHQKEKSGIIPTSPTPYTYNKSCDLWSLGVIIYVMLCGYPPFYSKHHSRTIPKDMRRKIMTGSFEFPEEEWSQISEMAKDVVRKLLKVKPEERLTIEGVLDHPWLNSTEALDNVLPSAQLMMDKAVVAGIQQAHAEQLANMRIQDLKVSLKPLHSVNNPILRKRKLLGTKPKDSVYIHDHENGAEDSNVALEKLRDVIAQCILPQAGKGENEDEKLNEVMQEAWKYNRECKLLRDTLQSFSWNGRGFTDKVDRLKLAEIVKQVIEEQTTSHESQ
Test: KINOMEscan competition binding
Conditions: compound 10.0 µM
Metric: kinase still bound, per cent of control (%)

- C=CC(=O)Nc1ccc(CN(C(=O)Nc2c(Cl)c(OC)cc(OC)c2Cl)c2cc(Nc3ccc(N4CCN(C)CC4)cc3)ncn2)cc1: 100
- CS(=O)(=O)N1CCN(Cc2cc3nc(-c4cccc5[nH]ncc45)nc(N4CCOCC4)c3s2)CC1: 100
- O=c1cc(N2CCOCC2)oc2c(-c3cccc4c3sc3ccccc34)cccc12: 100
- NC(=O)Nc1cc(-c2cccc(F)c2)sc1C(=O)N[C@@H]1CCCNC1: 0.05
- CNC(=O)c1cc(Oc2ccc(NC(=O)Nc3ccc(Cl)c(C(F)(F)F)c3)cc2)ccn1: 100
- C[C@@H](Oc1cc(-c2cnn(C3CCNCC3)c2)cnc1N)c1c(Cl)ccc(F)c1Cl: 68
- COCC(=O)NC/C=C/c1ccc2ncnc(Nc3ccc(Oc4ccc(C)nc4)c(C)c3)c2c1: 100
- CCN(CC)CCCCNc1ncc2c(n1)N(C)C(=O)N(c1c(Cl)c(OC)cc(OC)c1Cl)C2: 100
- CNC(=O)c1ccc(Nc2cc(Nc3ccccc3S(=O)(=O)C(C)C)c3cc[nH]c3n2)nc1: 100

###

Target: UniProt P15735
Sequence (P15735 whole entry, looked up): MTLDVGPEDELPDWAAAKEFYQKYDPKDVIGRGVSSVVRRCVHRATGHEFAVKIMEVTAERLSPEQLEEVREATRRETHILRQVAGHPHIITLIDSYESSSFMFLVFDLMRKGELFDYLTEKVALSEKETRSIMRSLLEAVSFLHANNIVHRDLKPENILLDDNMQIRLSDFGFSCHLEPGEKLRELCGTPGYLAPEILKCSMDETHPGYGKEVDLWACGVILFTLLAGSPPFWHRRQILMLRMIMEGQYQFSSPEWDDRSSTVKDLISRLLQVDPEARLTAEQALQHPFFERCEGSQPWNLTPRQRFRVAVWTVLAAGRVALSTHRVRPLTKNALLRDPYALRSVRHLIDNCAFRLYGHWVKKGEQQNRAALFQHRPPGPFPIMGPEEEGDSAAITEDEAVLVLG
Experiment: KINOMEscan competition binding
Settings: compound 10.0 µM
# reported kinase still bound, per cent of control; entries follow
Metric: kinase still bound, per cent of control (%)

* CNC(=O)c1ccc(Nc2cc(Nc3ccccc3S(=O)(=O)C(C)C)c3cc[nH]c3n2)nc1 | 100
* C=CC(=O)Nc1cc(-n2c(=O)ccc3cnc4ccc(-c5cn[nH]c5)cc4c32)ccc1C | 79
* NC(=O)Nc1cc(-c2cccc(F)c2)sc1C(=O)N[C@@H]1CCCNC1 | 1.6
* O=C1NC(=O)/C(=C/c2ccc3nccc(-c4ccncc4)c3c2)S1 | 6
* COc1cc2ncn(-c3cc(OCc4ccccc4C(F)(F)F)c(C(N)=O)s3)c2cc1OC | 100
* CCN(CC)CCCCNc1ncc2cc(-c3cc(OC)cc(OC)c3)c(NC(=O)NC(C)(C)C)nc2n1 | 100
* C=CC(=O)Nc1ccc(CN(C(=O)Nc2c(Cl)c(OC)cc(OC)c2Cl)c2cc(Nc3ccc(N4CCN(C)CC4)cc3)ncn2)cc1 | 100
* O=C(Nc1cccc(Nc2ncc(Br)c(NCCc3cnc[nH]3)n2)c1)N1CCCC1 | 8.9
* C[C@@H](Oc1cc(-c2cnn(C3CCNCC3)c2)cnc1N)c1c(Cl)ccc(F)c1Cl | 32
* COc1cc(N2CCN(C)CC2)ccc1Nc1ncc2c(n1)N(C)c1ccccc1C(=O)N2C | 29
* O=c1cc(N2CCOCC2)oc2c(-c3cccc4c3sc3ccccc34)cccc12 | 99
* COc1cc(C(=O)N2CCC(N3CCN(C)CC3)CC2)ccc1Nc1ncc2c(n1)N(C)c1ccccc1C(=O)N2C | 33
* N#CCNC(=O)c1ccc(-c2ccnc(Nc3ccc(N4CCOCC4)cc3)n2)cc1 | 23
* COCC(=O)NC/C=C/c1ccc2ncnc(Nc3ccc(Oc4ccc(C)nc4)c(C)c3)c2c1 | 86
* CCN1CCN(C(=O)Cc2ccc(Nc3ncc(F)c(Nc4ccc(C(=O)Nc5ccccc5Cl)cc4)n3)cc2)CC1 | 42
* CN(C)C/C=C/C(=O)Nc1ccc(C(=O)Nc2cccc(Nc3nccc(-c4cccnc4)n3)c2)cc1 | 56
* Cc1n[nH]c2ccc(-c3cncc(OC[C@@H](N)Cc4c[nH]c5ccccc45)c3)cc12 | 23
* CS(=O)(=O)N1CCN(Cc2cc3nc(-c4cccc5[nH]ncc45)nc(N4CCOCC4)c3s2)CC1 | 100
* COc1cc2ncnc(-n3nc(-c4ccccn4)nc3N)c2cc1OC | 36

###

Biological target: JAK1 JH2 pseudokinase (human) (UniProt P23458)
Sequence (P23458 whole entry, looked up): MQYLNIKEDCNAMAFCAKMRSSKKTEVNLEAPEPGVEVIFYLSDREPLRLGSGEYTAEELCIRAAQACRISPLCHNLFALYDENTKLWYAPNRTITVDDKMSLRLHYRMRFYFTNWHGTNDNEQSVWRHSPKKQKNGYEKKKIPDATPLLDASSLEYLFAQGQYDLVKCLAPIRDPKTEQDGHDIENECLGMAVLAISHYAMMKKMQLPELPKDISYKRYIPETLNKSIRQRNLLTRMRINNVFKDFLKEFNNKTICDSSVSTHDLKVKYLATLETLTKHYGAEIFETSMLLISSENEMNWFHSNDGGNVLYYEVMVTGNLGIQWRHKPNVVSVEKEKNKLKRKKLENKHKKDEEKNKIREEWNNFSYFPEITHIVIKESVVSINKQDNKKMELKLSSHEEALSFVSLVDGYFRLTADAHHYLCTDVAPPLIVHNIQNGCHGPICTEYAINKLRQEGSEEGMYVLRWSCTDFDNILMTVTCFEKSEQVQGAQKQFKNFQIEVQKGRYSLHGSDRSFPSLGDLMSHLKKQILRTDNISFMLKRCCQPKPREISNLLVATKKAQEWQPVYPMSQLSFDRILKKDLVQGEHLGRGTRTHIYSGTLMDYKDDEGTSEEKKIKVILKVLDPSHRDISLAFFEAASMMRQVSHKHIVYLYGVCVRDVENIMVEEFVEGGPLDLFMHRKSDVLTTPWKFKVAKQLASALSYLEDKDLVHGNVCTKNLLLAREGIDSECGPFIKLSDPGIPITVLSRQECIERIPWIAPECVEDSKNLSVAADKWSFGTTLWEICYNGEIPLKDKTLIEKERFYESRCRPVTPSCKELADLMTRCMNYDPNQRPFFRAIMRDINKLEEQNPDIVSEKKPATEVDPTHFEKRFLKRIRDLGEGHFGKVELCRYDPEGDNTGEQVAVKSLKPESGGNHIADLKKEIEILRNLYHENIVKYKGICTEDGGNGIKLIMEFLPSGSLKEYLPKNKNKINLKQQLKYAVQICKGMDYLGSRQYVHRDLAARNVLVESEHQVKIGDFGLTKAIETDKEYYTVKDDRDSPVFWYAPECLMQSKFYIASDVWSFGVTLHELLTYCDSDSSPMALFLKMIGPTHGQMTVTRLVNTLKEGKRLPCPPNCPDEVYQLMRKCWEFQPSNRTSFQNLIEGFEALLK
Test: KINOMEscan competition binding
Conditions: compound 10.0 µM
Metric: kinase still bound, per cent of control (%)

• COc1cc(C(=O)N2CCC(N3CCN(C)CC3)CC2)ccc1Nc1ncc2c(n1)N(C)c1ccccc1C(=O)N2C = 92
• COc1cc(N2CCN(C)CC2)ccc1Nc1ncc2c(n1)N(C)c1ccccc1C(=O)N2C = 100
• O=c1cc(N2CCOCC2)oc2c(-c3cccc4c3sc3ccccc34)cccc12 = 72
• CCN(CC)CCCCNc1ncc2c(n1)N(C)C(=O)N(c1c(Cl)c(OC)cc(OC)c1Cl)C2 = 100
• CCN(CC)CCCCNc1ncc2cc(-c3cc(OC)cc(OC)c3)c(NC(=O)NC(C)(C)C)nc2n1 = 100
• O=C(Nc1cccc(Nc2ncc(Br)c(NCCc3cnc[nH]3)n2)c1)N1CCCC1 = 0.2
• Cc1n[nH]c2ccc(-c3cncc(OC[C@@H](N)Cc4c[nH]c5ccccc45)c3)cc12 = 100
• C=CC(=O)Nc1cc(-n2c(=O)ccc3cnc4ccc(-c5cn[nH]c5)cc4c32)ccc1C = 34
• CCN1CCN(C(=O)Cc2ccc(Nc3ncc(F)c(Nc4ccc(C(=O)Nc5ccccc5Cl)cc4)n3)cc2)CC1 = 3
• CS(=O)(=O)N1CCN(Cc2cc3nc(-c4cccc5[nH]ncc45)nc(N4CCOCC4)c3s2)CC1 = 100
• C[C@@H](Oc1cc(-c2cnn(C3CCNCC3)c2)cnc1N)c1c(Cl)ccc(F)c1Cl = 1.8
• CN(C)C/C=C/C(=O)Nc1ccc(C(=O)Nc2cccc(Nc3nccc(-c4cccnc4)n3)c2)cc1 = 0.6
• N#CCNC(=O)c1ccc(-c2ccnc(Nc3ccc(N4CCOCC4)cc3)n2)cc1 = 100
• COc1ccc(N(C(=O)Oc2c(C)cccc2C)c2ccnc(Nc3ccc(N4CCN(C)CC4)cc3)n2)c(OC)c1 = 84
• NC(=O)Nc1cc(-c2cccc(F)c2)sc1C(=O)N[C@@H]1CCCNC1 = 2.5
• CNC(=O)c1cc(Oc2ccc(NC(=O)Nc3ccc(Cl)c(C(F)(F)F)c3)cc2)ccn1 = 100
• COc1cc2ncnc(-n3nc(-c4ccccn4)nc3N)c2cc1OC = 0.4
• O=C1NC(=O)/C(=C/c2ccc3nccc(-c4ccncc4)c3c2)S1 = 57
• COc1cc2ncn(-c3cc(OCc4ccccc4C(F)(F)F)c(C(N)=O)s3)c2cc1OC = 100
• C=CC(=O)Nc1ccc(CN(C(=O)Nc2c(Cl)c(OC)cc(OC)c2Cl)c2cc(Nc3ccc(N4CCN(C)CC4)cc3)ncn2)cc1 = 100
• CNC(=O)c1ccc(Nc2cc(Nc3ccccc3S(=O)(=O)C(C)C)c3cc[nH]c3n2)nc1 = 0.05
